Test: AUC (0 to infinity) in ICR mouse at 20 mg/kg, po
Type: ADME, organism-based
Settings: in vivo
Items are presented alongside their recorded AUC(0-inf).

smiles structure: CNC(=O)c1cc(Br)cc([N+](=O)[O-])c1N[C@@H]1CCCC[C@@H]1NC(=O)c1cc(=O)[nH]c2ccccc12
AUC(0-inf): 29.9 ng·h/mL

smiles structure: CNC(=O)c1cc(Br)cc([N+](=O)[O-])c1N[C@@H]1CCCC[C@@H]1NC(=O)c1cc(=O)[nH]c2c(F)cccc12
AUC(0-inf): 58.2 ng·h/mL

smiles structure: O=C(N[C@H]1CCCC[C@H]1Nc1c(C(=O)N2CCOCC2)cc(Br)cc1[N+](=O)[O-])c1cc(=O)[nH]c2c(F)cccc12
AUC(0-inf): 21.6 ng·h/mL

smiles structure: CN1CCN(C(=O)c2cc(Br)cc([N+](=O)[O-])c2N[C@@H]2CCCC[C@@H]2NC(=O)c2cc(=O)[nH]c3c(F)cccc23)CC1
AUC(0-inf): 77.7 ng·h/mL

====

Molecular target: Calpain-1 catalytic subunit (Homo sapiens, UniProt P07384)
Sequence (P07384 whole entry): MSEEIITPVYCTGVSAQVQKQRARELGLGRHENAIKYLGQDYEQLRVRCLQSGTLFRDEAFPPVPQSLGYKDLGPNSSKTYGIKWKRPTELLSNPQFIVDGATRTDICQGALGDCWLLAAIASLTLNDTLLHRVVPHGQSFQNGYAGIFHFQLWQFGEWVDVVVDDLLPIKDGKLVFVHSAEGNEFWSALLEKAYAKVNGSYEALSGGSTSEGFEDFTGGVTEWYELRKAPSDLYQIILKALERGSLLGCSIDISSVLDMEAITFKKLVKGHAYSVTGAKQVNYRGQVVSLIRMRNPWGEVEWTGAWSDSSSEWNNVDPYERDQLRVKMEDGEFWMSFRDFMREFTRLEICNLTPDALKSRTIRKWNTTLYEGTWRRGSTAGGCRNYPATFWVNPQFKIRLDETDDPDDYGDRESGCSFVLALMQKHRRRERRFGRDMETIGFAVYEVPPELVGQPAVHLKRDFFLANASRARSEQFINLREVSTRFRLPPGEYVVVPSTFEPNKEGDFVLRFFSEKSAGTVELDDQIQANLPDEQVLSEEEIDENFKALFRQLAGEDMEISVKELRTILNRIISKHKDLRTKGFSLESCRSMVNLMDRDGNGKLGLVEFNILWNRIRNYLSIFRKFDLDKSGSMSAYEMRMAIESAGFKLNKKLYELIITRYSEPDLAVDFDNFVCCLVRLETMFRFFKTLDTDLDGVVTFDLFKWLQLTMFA
Assay: Inhibition of human Calpain 1 using N-Suc-Leu-Leu-Val-Tyr-7-AMC as substrate incubated for 10 mins by FRET-enzymatic assay
pIC50: −log10 of the molar value.
reported metric: pIC50

smiles structure: CN1CCN(C(=O)c2cc(Br)cc([N+](=O)[O-])c2N[C@@H]2CCCC[C@@H]2NC(=O)c2cc(=O)[nH]c3c(F)cccc23)CC1
result: < 4.00

====

Assay: Cytotoxicity against African green monkey Vero E6 cells incubated for 24 hrs by CCK8 assay
Format: toxicity, cell-based, Vero C1008
Conditions: chlorocebus sabaeus

compound: CNC(=O)c1cc(C2CC2)cc([N+](=O)[O-])c1N[C@@H]1CCCC[C@@H]1NC(=O)c1cc(=O)[nH]c2ccccc12
CC50 at 24 h: > 200 µM

compound: O=C(NCCCC(F)(F)F)C1CN(c2ccc(Cl)c(Cl)c2)CCN1C(=O)c1cc(=O)[nH]c2ccccc12 (configuration not stated)
CC50 at 24 h: 69.4 µM

compound: O=C(NCCC(F)(F)F)C1CN(c2ccc(Cl)c(Cl)c2)CCN1C(=O)c1cc(=O)[nH]c2ccccc12 (configuration not stated)
CC50 at 24 h: 50.3 µM

compound: CNC(=O)c1cc(Br)cc([N+](=O)[O-])c1N[C@@H]1CCCC[C@@H]1NC(=O)c1cc(=O)[nH]c2ccc(F)cc12
CC50 at 24 h: > 200 µM

compound: COc1ccc2[nH]c(=O)cc(C(=O)N[C@H]3CCCC[C@H]3Nc3c(C(=O)N4CCOCC4)cc(C4CC4)cc3[N+](=O)[O-])c2c1
CC50 at 24 h: > 200 µM

compound: CNC(=O)c1cc(Br)cc([N+](=O)[O-])c1N[C@@H]1CCCC[C@@H]1NC(=O)c1cc(=O)[nH]c2ccccc12
CC50 at 24 h: > 200 µM

compound: O=C(N[C@H]1CCCC[C@H]1Nc1c(C(=O)N2CCOCC2)cc(Br)cc1[N+](=O)[O-])c1cc(=O)[nH]c2ccccc12
CC50 at 24 h: > 200 µM

compound: O=C(c1cc(=O)[nH]c2ccccc12)N1CCN(c2ccc(Cl)c(Cl)c2)CC1CN1CCOCC1 (configuration not stated)
CC50 at 24 h: 381 µM

compound: CN1CCN(C(=O)c2cc(Br)cc([N+](=O)[O-])c2N[C@@H]2CCCC[C@@H]2NC(=O)c2cc(=O)[nH]c3c(F)cccc23)CC1
CC50 at 24 h: > 200 µM

compound: O=C(N[C@H]1CCCC[C@H]1Nc1c(C(=O)N2CCOCC2)cc(C2CC2)cc1[N+](=O)[O-])c1cc(=O)[nH]c2ccccc12
CC50 at 24 h: > 200 µM

compound: O=C(N[C@H]1CCCC[C@H]1Nc1c(C(=O)N2CCOCC2)cc(Br)cc1[N+](=O)[O-])c1cc(=O)[nH]c2c(F)cccc12
CC50 at 24 h: > 200 µM

compound: CNC(=O)c1cc(Br)cc([N+](=O)[O-])c1N[C@@H]1CCCC[C@@H]1NC(=O)c1cc(=O)[nH]c2c(F)cccc12
CC50 at 24 h: > 200 µM

====

Test: Cmax in ICR mouse at 20 mg/kg, po
Type: ADME, organism-based
Conditions: in vivo

smiles structure: CN1CCN(C(=O)c2cc(Br)cc([N+](=O)[O-])c2N[C@@H]2CCCC[C@@H]2NC(=O)c2cc(=O)[nH]c3c(F)cccc23)CC1
Cmax / ng/mL: 76.3
//
smiles structure: CNC(=O)c1cc(Br)cc([N+](=O)[O-])c1N[C@@H]1CCCC[C@@H]1NC(=O)c1cc(=O)[nH]c2c(F)cccc12
Cmax / ng/mL: 63.6
//
smiles structure: CNC(=O)c1cc(Br)cc([N+](=O)[O-])c1N[C@@H]1CCCC[C@@H]1NC(=O)c1cc(=O)[nH]c2ccccc12
Cmax / ng/mL: 11.3
//
smiles structure: O=C(N[C@H]1CCCC[C@H]1Nc1c(C(=O)N2CCOCC2)cc(Br)cc1[N+](=O)[O-])c1cc(=O)[nH]c2c(F)cccc12
Cmax / ng/mL: 33.9

====

Target: Replicase polyprotein 1ab (Severe acute respiratory syndrome coronavirus 2, UniProt P0DTD1)
Items are presented alongside their recorded Kd.

compound: O=C(c1cc(=O)[nH]c2ccccc12)N1CCN(c2ccc(Cl)c(Cl)c2)CC1CN1CCOCC1 (stereo not given)
result unit: nM
Kd: 117
--
compound: CNC(=O)c1cc(Br)cc([N+](=O)[O-])c1N[C@@H]1CCCC[C@@H]1NC(=O)c1cc(=O)[nH]c2ccccc12
result unit: nM
Kd: 8.9
--
compound: CNC(=O)c1cc(Br)cc([N+](=O)[O-])c1N[C@@H]1CCCC[C@@H]1NC(=O)c1cc(=O)[nH]c2c(F)cccc12
result unit: nM
Kd: 23.6
--
compound: CN1CCN(C(=O)c2cc(Br)cc([N+](=O)[O-])c2N[C@@H]2CCCC[C@@H]2NC(=O)c2cc(=O)[nH]c3c(F)cccc23)CC1
result unit: nM
Kd: 18.4
--
compound: O=C(N[C@H]1CCCC[C@H]1Nc1c(C(=O)N2CCOCC2)cc(Br)cc1[N+](=O)[O-])c1cc(=O)[nH]c2c(F)cccc12
result unit: nM
Kd: 19

====

Biological target: Replicase polyprotein 1ab (Severe acute respiratory syndrome coronavirus 2)
pIC50: −log10 of the molar value.
We use 7 as the dividing line for pIC50: on or above the line is T, below is F.

molecule: O=C(c1cc(=O)[nH]c2ccccc12)N1CCC(Nc2ccc(Cl)c(Cl)c2)C1 (stereo unspecified)
class assignment: F
--
molecule: O=C(N[C@H]1CCC[C@H]1Nc1c(C(=O)N2CCOCC2)cc(Br)cc1[N+](=O)[O-])c1cc(=O)[nH]c2ccccc12
class assignment: T
--
molecule: O=C(NCC1CCC1)C1CN(c2ccc(Cl)c(Cl)c2)CCN1C(=O)c1cc(=O)[nH]c2ccccc12 (stereo unspecified)
class assignment: F
--
molecule: O=C(N[C@@H]1CCC[C@@H]1Nc1ccc(Cl)c(Cl)c1)c1cc(=O)[nH]c2ccccc12
class assignment: F
--
molecule: O=C(NCCCN1CCOCC1)C1CN(c2ccc(Cl)c(Cl)c2)CCN1C(=O)c1cc(=O)[nH]c2ccccc12 (stereo unspecified)
class assignment: F
--
molecule: CNC(=O)c1cc(Br)cc([N+](=O)[O-])c1N[C@@H]1CCCC[C@@H]1NC(=O)c1cc(=O)[nH]c2ccccc12
class assignment: T
--
molecule: CNC(=O)c1cc(C2CC2)cc([N+](=O)[O-])c1N[C@@H]1CCCC[C@@H]1NC(=O)c1cc(=O)[nH]c2ccccc12
class assignment: T
--
molecule: O=C(NCCC(F)(F)F)C1CN(c2ccc(Cl)c(Cl)c2)CCN1C(=O)c1cc(=O)[nH]c2ccccc12 (stereo unspecified)
class assignment: F
--
molecule: COc1ccc2[nH]c(=O)cc(C(=O)N[C@H]3CCCC[C@H]3Nc3c(C(=O)N4CCOCC4)cc(C4CC4)cc3[N+](=O)[O-])c2c1
class assignment: T
--
molecule: CN1CCN(C(=O)c2cc(Br)cc([N+](=O)[O-])c2N[C@@H]2CCCC[C@@H]2NC(=O)c2cc(=O)[nH]c3c(F)cccc23)CC1
class assignment: T
--
molecule: COc1ccc2[nH]c(=O)cc(C(=O)N[C@H]3CCC[C@H]3Nc3c(C(=O)N4CCOCC4)cc(C4CC4)cc3[N+](=O)[O-])c2c1
class assignment: T
--
molecule: O=C(C1CN(c2ccc(Cl)c(Cl)c2)CCN1C(=O)c1cc(=O)[nH]c2ccccc12)N1CCOCC1 (stereo unspecified)
class assignment: F
--
molecule: CN1CCN(C(=O)c2cc(C3CC3)cc([N+](=O)[O-])c2N[C@@H]2CCC[C@@H]2NC(=O)c2cc(=O)[nH]c3ccccc23)CC1
class assignment: T
--
molecule: O=C(NCCC1CCCC1)C1CN(c2ccc(Cl)c(Cl)c2)CCN1C(=O)c1cc(=O)[nH]c2ccccc12 (stereo unspecified)
class assignment: F
--
molecule: O=C(NCCC1CCOCC1)C1CN(c2ccc(Cl)c(Cl)c2)CCN1C(=O)c1cc(=O)[nH]c2ccccc12 (stereo unspecified)
class assignment: F
